Values from ChEMBL document CHEMBL1143832

Give half-life for every item shown.
experiment: Half life in mouse serum at 15 mg/kg, po
Type: ADME, organism-based
Design: dose 15 mg/kg, route oral
Number only, in h; omit the unit.

Name the reported half-life value associated with the molecule CC[C@H]1OC(=O)[C@H](C)C(=O)[C@H](C)[C@@H](O[C@@H]2O[C@H](C)C[C@H](N(C)C)[C@H]2O)[C@@]2(C)C[C@@H](C)/C(=N\C(C)=O)[C@H](C)[C@@H](OC/C(=N\OCc3ccc(-n4cccn4)nc3)CO2)[C@]1(C)O
3.3

Name the reported half-life value associated with the molecule CC[C@H]1OC(=O)[C@H](C)C(=O)[C@H](C)[C@@H](O[C@@H]2O[C@H](C)C[C@H](N(C)C)[C@H]2O)[C@](C)(OC)C[C@@H](C)C(=O)[C@H](C)[C@H]2N(CCCCn3cnc(-c4cccnc4)c3)C(=O)O[C@]12C
1.5

====

experiment: Tmax in mouse serum at 15 mg/kg, po
Type: ADME, organism-based
Parameters: dose 15 mg/kg, route oral
Give Tmax for every item shown.
Number only, in h; omit the unit.

Name the reported Tmax value associated with the compound CC[C@H]1OC(=O)[C@H](C)C(=O)[C@H](C)[C@@H](O[C@@H]2O[C@H](C)C[C@H](N(C)C)[C@H]2O)[C@](C)(OC)C[C@@H](C)C(=O)[C@H](C)[C@H]2N(CCCCn3cnc(-c4cccnc4)c3)C(=O)O[C@]12C
1

Name the reported Tmax value associated with the compound CC[C@H]1OC(=O)[C@H](C)C(=O)[C@H](C)[C@@H](O[C@@H]2O[C@H](C)C[C@H](N(C)C)[C@H]2O)[C@@]2(C)C[C@@H](C)/C(=N\C(C)=O)[C@H](C)[C@@H](OC/C(=N\OCc3ccc(-n4cccn4)nc3)CO2)[C@]1(C)O
1.5
